Hello, the source for this data is patent EP0114128A1, in case you need it.

Test system: Klebsiella Aeruginosa 1522 E
Test: In vitro activity, dilution method in liquid medium (MIC)
Assay type: cell-based
Settings: 24 H incubation at 37°C, read-out: concentrations minimales inhibitrices (C. M. I.)
MIC by entry:
Report as a plain number; the unit µg/mL is understood.

Take a look at these entries with their results.
compound: CO/N=C(\C(=O)N[C@@H]1C(=O)N(c2nn[nH]n2)[C@H]1C)c1csc(N)n1 (racemic) [Prod. ex. 2]
obsValue: 0.6

compound: CO/N=C(\C(=O)N[C@@H]1C(=O)N(c2nn[nH]n2)[C@@H]1CF)c1csc(N)n1 (racemic) [Prod. ex. 11]
obsValue: 0.6

compound: C[C@@H]1[C@H](NC(=O)/C(=N\OCC(=O)O)c2csc(N)n2)C(=O)N1c1nn[nH]n1 (racemic) [Prod. ex. 6]
obsValue: 0.6

compound: C[C@@H]1[C@H](NC(=O)/C(=N\OC(C)(C)C(=O)O)c2csc(N)n2)C(=O)N1c1nn[nH]n1 (racemic) [Prod. ex.7]
obsValue: 1.2

compound: CO/N=C(\C(=O)N[C@@H]1C(=O)N(c2nn[nH]n2)[C@@H]1C)c1csc(N)n1 (racemic) [Prod. ex. 1]
obsValue: 1.2

Query: I have this compound here, C[C@@H]1[C@H](NC(=O)/C(=N\OC(F)F)c2csc(N)n2)C(=O)N1c1nn[nH]n1 (racemic) [Prod. ex. 4] , and I need its recorded MIC.
Reply: 1.2

Query: I have this compound here, CO/N=C(\C(=O)N[C@H]1CN(c2nn[nH]n2)C1=O)c1csc(N)n1 [Prod. ex.3] , and I need its recorded MIC.
Reply: 0.3
